System: MDA-MB-435 melanoma
Assay: NCI-60 one-dose screen, 48 h
Conditions: 10 µM unless noted
This is part of a sample that, as a whole, favours compounds with a hit. Of some 83,000 tested, about 20% had one in any assay. Activity calls are given as the source filed them. How the source made its calls: active means growth percent below 10; inactive means the rest.
Give one outcome, nothing more. List: active, inactive

Problem: # outcome recorded in this test, key = CNC(=O)c1c(NC(=O)c2ccc(C(C)C)cc2)sc2c1CCC(=O)C2
Result: active

Problem: Now consider CCN(CC)c1ccc(/C=C2/NC(=O)NC2=O)cc1 and answer again.
Result: active

Problem: Now consider O=C(CC(=O)C(F)(F)C(F)(F)C(F)(F)F)c1cc2ccccc2o1 and answer again.
Result: inactive

Problem: Now consider COc1cc(C2CC(c3ccc(Cl)cc3)=NN2C=O)ccc1Oc1ccnc2cc(Cl)ccc12 (stereo not given) and answer again.
Result: inactive

Problem: Now consider CCCCCCCCOC(=O)C(C)OC(=O)OCCOCCOC(=O)OC(C)C(=O)OCCCCCCCC (stereo not given) and answer again.
Result: inactive

---

System: SNB-75 CNS
Experiment: NCI-60 one-dose screen, 48 h
Details: 10 µM unless noted
The panel holds about 83,000 compounds, 20% with a hit somewhere; the sample as a whole holds those more often. Active and inactive are the calls of the source. Rule for the calls: active = growth percent below 10; inactive = the rest.
Give one outcome, nothing more. List: active, inactive

Problem: # outcome recorded in this test, key = CCN(CC)CC(=O)Nc1c(C)cc(C(=O)NN)cc1C
Result: inactive

Problem: Now consider O=C(CCl)Nc1cc(O)c2c(c1)C(=O)c1cccc(O)c1C2=O and answer again.
Result: active

Problem: Now consider COc1cc(OC)cc(-c2ccc(-c3ccc(C(=N)N)s3)s2)c1 and answer again.
Result: active

Problem: Now consider Fc1ccc(-c2nc(-c3ccc(-c4nc5ccc(F)cc5[nH]4)cc3)no2)cc1 and answer again.
Result: inactive

Problem: Now consider Clc1ccc(-c2cnc3c(-c4ccnc(N5CCNCC5)c4)cnn3c2)cc1 and answer again.
Result: active

Problem: Now consider O=C(CC(=O)c1ccccc1F)Nc1ccc([N+](=O)[O-])cc1 and answer again.
Result: inactive

Problem: Now consider NC(=O)N/N=C\c1ccc([N+](=O)[O-])o1 and answer again.
Result: inactive

Problem: Now consider COc1cnc2c(c1)C(=O)c1c-2n(CCCN2CCCC2)c(=O)c2cc(Cl)ccc12 and answer again.
Result: inactive

Problem: Now consider CNC1=C([N+](=O)[O-])C(c2ccccc2O)C(C#N)=C(c2cccs2)O1 (centres undefined) and answer again.
Result: inactive

Problem: Now consider COc1cc(OC)c2sc(-c3ccc(-n4cncc4-c4ccc(OC)c(N)c4)cc3)nc2c1 and answer again.
Result: inactive

Problem: Now consider COc1cc(C2CC(c3ccc(C)cc3)=NN2C=O)ccc1Oc1nc2c(c(=O)n(C)c(=O)n2C)n1C (centres undefined) and answer again.
Result: inactive

Problem: Now consider OC(CCCCCCCCC(O)CN1CCc2ccccc2C1)CN1CCc2ccccc2C1 (centres undefined) and answer again.
Result: inactive

Problem: Now consider C#C[C@]1(O)CC[C@H]2[C@@H]3CC=C4c5sc(-c6cccc(Br)c6)nc5CC[C@]4(C)[C@H]3CC[C@@]21C and answer again.
Result: inactive

Problem: Now consider O=C(Nc1ccc(Br)cc1)c1ccc(Cl)c(Cl)c1 and answer again.
Result: inactive
